Taken from patent US12583839B2.

Assignment: determine reported EC50 for the given compounds.
- testSystem: PD-1/PD-L1 (Homo sapiens)
- Construct: 60535 (PD-1/NFAT-Reporter-Jurkat); Jurkat cells expressing PD-1
- Sequence (Q9NZQ7 19-290): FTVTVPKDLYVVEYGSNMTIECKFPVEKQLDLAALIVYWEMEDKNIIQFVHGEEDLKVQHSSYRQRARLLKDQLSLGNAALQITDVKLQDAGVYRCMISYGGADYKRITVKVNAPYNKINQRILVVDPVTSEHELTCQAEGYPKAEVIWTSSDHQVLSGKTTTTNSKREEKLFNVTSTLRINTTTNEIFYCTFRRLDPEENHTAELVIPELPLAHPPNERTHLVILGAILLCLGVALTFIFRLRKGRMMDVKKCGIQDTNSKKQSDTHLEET
- testName: Detection of biological activity of PD-1/PD-L1 signaling inhibition at the cellular level (NFAT luciferase reporter, PD-1/NFAT-Reporter-Jurkat cells co-cultured with TCR activator/PD-L1-CHO cells)
- particulars: PD-1/NFAT-Reporter-Jurkat + TCR activator/PD-L1-CHO co-culture, 6 hours; Atezolizumab as positive control
Report as a plain number; the unit nM is understood.

Query block: Requested read-out: EC50. Entry: COc1cc(-c2cccc(-c3cccc4c3cnn4Cc3cc(OC)c(CN(C)[C@H]4CC[C@H](C(=O)O)CC4)cc3Cl)c2Cl)ccc1CNC[C@@H]1CCC(=O)N1
Result block: 38

Query block: I'd like to know its EC50. The compound in question is COc1cc(-c2cccc(-c3cccc4c3cnn4Cc3cc(OC)c(CN(C)[C@H]4CC[C@H](C(=O)NS(C)(=O)=O)CC4)cc3Cl)c2Cl)ccc1CNC[C@@H]1CCC(=O)N1
Result block: 29

Query block: I am curious: what EC50 value has been reported for COc1cc(Cn2ncc3c(-c4cccc(-c5ccc(CN6CC[C@@H](C(=O)O)C6)c(OC)c5)c4Cl)cccc32)c(Cl)cc1CN1CC[C@@H](O)C1 ?
Result block: 693

Query block: Look up EC50 for this compound: COc1cc(-c2cccc(-c3cccc4c3cnn4Cc3cc(OC)c(CN(C)[C@H]4CC[C@@H](CC(=O)O)CC4)cc3Cl)c2Cl)ccc1CNC[C@@H]1CCC(=O)N1
Result block: 44

Query block: # get_value(readout='EC50', item= COc1cc(-c2cccc(-c3cccc4c3cnn4Cc3cc(OC)c(CN(C)C4CCC(CC(=O)O)CC4)cc3C(F)(F)F)c2Cl)ccc1CNC[C@@H]1CCC(=O)N1 (some centres unmarked) )
Result block: 28

Query block: Entry N#Cc1cncc(COc2cc(Cn3ncc4c(-c5cccc(-c6ccc(CNC[C@@H]7CCC(=O)N7)cc6)c5)cccc43)c(Cl)cc2CN[C@@H](CO)C(=O)O)c1 : reported EC50 = ?
Result block: 339

Query block: Entry COc1cc(Cn2ncc3c(-c4cccc(-c5ccc(CNC[C@@H]6CCC(=O)N6)cc5)c4Cl)cccc32)c(Cl)cc1CN1CC(C(=O)O)C1 : reported EC50 = ?
Result block: 809

Query block: # EC50 lookup, item COc1cc(Cn2nc(F)c3c(-c4cccc(-c5ccc(CNC[C@@H]6CCC(=O)N6)cc5)c4Cl)cccc32)c(Cl)cc1CN[C@@H](CO)C(=O)O
Result block: 92

Query block: For the compound CN(Cc1cc(Cl)c(Cn2ncc3c(-c4cccc(-c5ccc(CNC[C@@H]6CCC(=O)N6)cc5)c4Cl)cccc32)cc1OCc1cncc(C#N)c1)[C@@H](CO)C(=O)O , what EC50 is on record?
Result block: 86

Query block: Field request: EC50 | item: COc1cc(Cn2ncc3c(-c4cccc(-c5ccc(CN6CC[C@@H](C(=O)O)C6)c(OC)c5)c4Cl)cccc32)c(Cl)cc1CNC[C@@H]1CCC(=O)N1
Result block: 222

Query block: Name the reported EC50 value associated with the compound COc1cc(-c2cccc(-c3cccc4c3cnn4Cc3cc(OC)c(CN(Cc4ccccc4)[C@H]4CC[C@H](C(=O)O)CC4)cc3Cl)c2Cl)ccc1CNC[C@@H]1CCC(=O)N1
Result block: 680
